Data origin: the supplement of paper PMC10307832

test system: NCI-H2023; test: relative viability (nuclei count vs DMSO), 5 days (fraction); higher = more cells survive; conditions: first compound 0.2 µM
Field: relative viability. Provide a value for each of the compounds that follow.

Here is how some compounds turned out for relative viability.
>>> observed_measurement("COCC1(CO)C(=O)C2CCN1CC2 (centres undefined) [PRIMA-1MET] + C[C@]1(O)C[C@@H](c2nc(-c3ccc4ccc(-c5ccccc5)nc4c3)c3c(N)nccn32)C1 [Linsitinib] (partner 1 µM)")
0.784
>>> observed_measurement("COCC1(CO)C(=O)C2CCN1CC2 (centres undefined) [PRIMA-1MET] + Nc1ncn([C@H]2C[C@H](O)[C@@H](CO)O2)c(=O)n1 [Decitabine] (partner 2 µM)")
0.211
>>> observed_measurement("COCC1(CO)C(=O)C2CCN1CC2 (centres undefined) [PRIMA-1MET] + Nc1nc2[nH]cc(CCc3ccc(C(=O)N[C@@H](CCC(=O)O)C(=O)O)cc3)c2c(=O)[nH]1 [Pemetrexed] (partner 0.2 µM)")
0.224

Note: attention shifts to another entry.
What does the record list as relative viability for COCC1(CO)C(=O)C2CCN1CC2 (centres undefined) [PRIMA-1MET] + C[C@@H](Oc1cc(-c2cnn(C3CCNCC3)c2)cnc1N)c1c(Cl)ccc(F)c1Cl [Crizotinib] (partner 1 µM) ? 0.764
